Protocol summary: yeast display, Sf9 membrane polyspecificity reagent, FACS + sequencing; frameworks hold sequencing errors
Recorded endpoint: polyreactivity (PSR sort gate)

Query sequence	Reported measurement
QVQLVESGGGLVQAGGSLRLSCAASGLTFVKYAMGWYRPAPGKERELVAAISRSGGRTYYADSVKGRFTISRDNAKNTVYLQMNSLKPEDTAVYYCNADHVRGNHGYDYWGQGTQVTVSS	high polyreactivity
QVQLVESWGGLVQAGGSLRLSCAASGLTFNYYDMGWYRQAPGKERELVAAISRSGTNTSYADSVKGRFTISRDNAKNTVYLQMNSLKPEDTAVYYCNAAGVYLAAGPYTANFNYNYWGQGTQVTVSS	low polyreactivity
QVQLVESGGGLVQAGGSLRLSCAASGRIFGHYAMGWYRQAPGKERELVASITDGTSTNYADSVKGRFTISRDNAKNTVYLQMNSLKPEDTADYYCAADDRLQFPRGDYCGQGTQVTVSS	low polyreactivity
QVQLVESGGGLVQAGGSLRLSCAASGRTFQKNTMGWYRQAPGKERELVAAIDYSATTTYYADSVKGRFTSSRDNAKNTVYLQMNSLKPEDTAVYYCAARWSYPRWEFDYWGQGTQVTVSS	high polyreactivity
QVQLVESGGGLVQAGGSLRLSCAASGSTLVSNAMGWYIQAPGKEREFVAAINSSGSRTYYADSVKGRFTISRDNANNTVYLQMNSLKPEDTAVYYCAAGYWNDFDWGQVTQVTVSS	low polyreactivity
QVQLLESGGGLVQAGGSLRLSCAASGRMFGSNAMGWYRQAPGKERELVAAITRGGSTNYADSVKGRFTISRDNAKNTVYFQMNSLKPEDTAVYYCAVRWYRKYNYWGQGTQVTVSS	high polyreactivity
QVQLVESGGGLVQAGGSLRLSCAASGRIFDVYAMGWYRQAPGKERELVATITGSGGGTYYADSVKGRFTISRDNAKNTVYLQMNSLKPEDSEVYYCASYYYPNYAYYVSNVVYDYWVQGTQVTVSS	low polyreactivity
QVQLVESGGGLVQAGGSLRLSCAASGRTFRKYAMGWYRQAPGKERELVAAINRGGTTKYADSVKGRFTISRDNAKNTVYLEMNSLKPEDTAVYYCAVDRQRAGYPKQYDSWGQGTQVTVSS	low polyreactivity
QVQLVESGGGLVQAGGSLRLSCAASGSIFNYYVMGWYRQAPGKERELVAGIRWNGGSTYYADSVKGRFTISRDNAKNTVYLQMNSLKPEDTAVYYCAAQAWWGYYSRGPMDYWGQGTQVTVSS	low polyreactivity
QVQLQESGGGLVQAGGSLRLSCAASGTISYAPHMGWYRQAPGKERELVAGITIGGTTYYADIVIGRFTISRDNAKNTVFLQMNSLSPGDTAVYYCAAHSEQYTPFYYWGQGTQVTVSS	low polyreactivity
QVQLQESGGLVQAGGSLRLSCAASGSISGRNVMGWYRQAPGKEREFVASITDGSSTNYADSVKGRFTISRDNAKNTVYLQMNSLKPKDTAVYYCAAYAQRAKSFGYWGRGTQVTVSS	low polyreactivity

----------
Protocol summary: yeast display, Sf9 membrane polyspecificity reagent, FACS + sequencing; frameworks hold sequencing errors

Query sequence	polyreactivity (PSR sort gate)
QVQLVESGGGLVQAGGSLRLSCAASGRTFVSNAMGWYRQAPGKERELVAAISVRGGRTYYADSVKGRFTISRDNAKNTVYLQMNSLKPEDTAVYYCNAVYRTYEYYWGQGTQVTVSS	high polyreactivity
QVQLVESGGGLVQAGGSLRLSCAASGFIFGRNTMGWYIQAPGKERELVAAITSGGSTNYADSVKGRFTISRDNAKNTVYLQMNSLKPEDTAVYYCAAEVSTYWTLYDYWGQGTQVTVSS	high polyreactivity
QVQLVESRGGLVQAGGSLRLSCAASGSTFKPNAMGWYRPAPGKERELVAAITSGSTYYADSVKGRFTISRDNAKNTVYLQMNSLKPEDTAVYYCATSFRGKSPYRNSGSYYYWGQGTQVTVSS	high polyreactivity
QVQLVESGGGLVQAGGSLRLSCAASGRTFGYNAMGWYRQAPGKERELVATISSSTVSTSYADSVKGRFTISRDNAKNTVYLQMNSLKPEDPAVYYCNARSRVSPTERVPYDSWGQGTQVTVSS	low polyreactivity
QVQLVESGGGLVQAGGSLRLSCAASGFIFRRYAMGWYRQAPGKERELVAAISGSGGRTYYADSVKGRFTISRDNAKNTVYLQMNSLKPEDTAVYYCAADHGSLLYDYWGQGTQVTVSS	high polyreactivity
QVQLVESGGGLVQAGGSLRLSCAASGSTFYTYTMGWYRQAPGKERELVAAITWSGGSTYYADSVKGRFTISRDNAKNTVYLQMNSLKPEDTAVYYCNADQDYQGARPSGMDYWGQGTQVTVSS	low polyreactivity
QVQLVESGGGLVQAGGSLRLSCAASGIIFWLYTMGWYRQAPGKERELVAAITSGGSTYYAESVKGRFTISRDNAKNTVYLQMNSLKPEDTAVYYCAAVSRAPGLRYDYWGQGTQVTVSS	high polyreactivity
QVQLVESGGGLVQAGGSLRLSCAASGSTFYWYAMGWYRQAPGKERELVAAITYSSGRTYYADSVKGRFTISRDNAKNTVYLQMNSLKPEDTAVYYCGWSALNGYDYWGQGTQVTVSS	high polyreactivity
QVQLVESGGGLVQAGGSLRLSCAASGRTFYRYAMGWYRQAPGKERELVAAMSRSGTTYYADSVKGRFTISRDNAQNTVYFQMNSLKPEDTALYYCAAKPAARQRGGDYWGQGTQVTVSS	high polyreactivity
QVQLVESGGGLVQAGGSLRLSCAASGVTFQFYARGWYREAPGKERELVAAISRRGGRTDYADSVTGRFTISRDNAKNTAYLQMNSLKPEDTAVYYCARDPGAFEYWGQGTQVTVSS	high polyreactivity
QVQLVESGGGLVQAGGSLRLSCAASGSTIYENAMGWYRQAPGKERELVAGISRGGGSTYYADSVKGRFTISRDNAKNTVYLQMNSLKPEDTAVYYCAAGSRVQGGYWGQGTQVTVSS	low polyreactivity
QVQLVESGGGLFQAGGSLRLSCAASGRTIYLNAMGWYRQAPLKERELVAAITSSGGRTYYADSVKGRFTISRDNAKNSVYLQMNSLKPEDTAVYYCAAVVSSKPSFYWGQGSQVTVSS	low polyreactivity
QVQLVESGGGLVQAGGSLRLSCAASGFTFRKYAMGWYRQAPGKESELVAAISWSGGSTYYADSVKGRFTISRDNAKNTVYLQMNSMKPEDTAVYYCAAPHWSPYDYWGQGTQVTVSS	high polyreactivity
KVQLVESGGVLVQAGGSLRLICAASGRTFYGYAMGWSRQAPGKERELVAGITSGGSTTYADSVKGRFTISRDHAKKTVYLQMNSLKPEDTAVYYCAKKWYRTTRAYVFRSYDYWGQGTQVTVSS	high polyreactivity
QVQLVESGGGLVQAGGSLRLSCAASGSIFFYNAMGWYRQAPGKERELVAAISRGGNTNYADSVKGRFTISRDNAKNTVNLQLNSLKPEDTAVYYCNADYSFWATPYWEYGYDYWGQGTQVTVTS	low polyreactivity
QVQLVESGGGLVQAGGSLRLSCAASGRIFGRYAMGWYRQAPGKERELVASIRSRGGSTYYADSVKGRFTISRDNAKNTVYLQMNSLIPEDTAVYYCAKTVTSGYYYAGRYDYWGQGTQVTVSS	high polyreactivity
QVQLVESGGGLVQAGGSLRLSCAASGFIFWLYAMGWYRQAPGKERELVAAISRSGGRTYYADSVKGRFTISRDNAKNTVYLQMNSLKPEDTAVYYCAKDDNYKSYPYDYWGQGTQVTVSS	high polyreactivity
QVKRVESGGGIVQAGGSLRLSCAASGSTFHKNVMGWYRQEPGKERELVAAISIIGVRTYYADSVKGRFTISRDNAKNTVYLQINSLKQVDTAVYYCNTDTQNRRGSGRGFWGEGTQVTVSS	high polyreactivity
QVQLVESGGGLVQAGGSLRLSCAASGRIFRINGMGWYRQAPGKEREFVAAITSGGGTYYADSVKGRFTISRDNAKNTVYLQMNSLKPEDTAVYYCAAPSYRTRYYYWGQGTQVTVSS	high polyreactivity
QVQLVESGGGLVQAGGSLRLSCAASGSTFWSYAMGWYTQAPGKERELVAVITGSDGRTFYADSVKGRFTISRDNAKNTVYLQMNSLKPEDTAVYYCAADAVFRATRYDRSTSEDDYWGQGTQVTVSS	low polyreactivity
QVQLVESGGGLVQAGGSLRLSCAASGFIFAYYAMGWYRQAPGKERELVAGINRTGSTNYADSVKGRFSISRDNAKNTVYLQMNSLKPEDTAVYYCAARGYRSGGGYNYWGQGTQVTVSS	high polyreactivity

Reference source: the nanobody polyreactivity screen of Harvey et al. (2022)
